Experiment: Reversal of P-gp-mediated doxorubicin-resistance in human LCC6MDR cells after 5 days by MTS assay
Format: cell-based
Settings: 120 h
measuredAttribute: pEC50
// scale note: pEC50 = -log10(conc_M); give the bare number

Query block: Give me measured pEC50, please, for this molecule: `O=c1cc(-c2ccc(OCCOCCN(CCOCCOc3ccc(-c4cc(=O)c5ccccc5o4)cc3)Cc3ccccc3)cc2)oc2ccccc12`
Result block: 6.88

---

Listed here: items and their measured IC50.
Test: Cytotoxicity against human LCC-6 cells after 72 hrs
Assay type: functional, cell-based
Conditions: LCC-6, 72 h
Reply numerically in µM, unit not repeated.

Here's what some known entries look like.
                       smilesrepresentation  measuredattribute  measurednumber
0  O=C(O)CCC(=O)N(CCOCCOc1ccc(-c2cc(=O)c3ccccc3o2)cc1)CCOCCOc1ccc(-c2cc(=O)c3ccccc3o2)cc1               IC50            78.4
1  O=c1c(OCc2ccccc2)c(-c2ccc(OCCOCCNCCOCCOc3ccc(-c4oc5ccccc5c(=O)c4OCc4ccccc4)cc3)cc2)oc2ccccc12               IC50             4.3
2  O=c1cc(-c2ccc(OCCOCCN(CCOCCOc3ccc(-c4cc(=O)c5ccccc5o4)cc3)Cc3ccccn3)cc2)oc2ccccc12               IC50              10

Query block: Return IC50 (reported value) for this molecule: `O=c1cc(-c2ccc(OCCOCCNCCOCCOc3ccc(-c4cc(=O)c5ccccc5o4)cc3)cc2)oc2ccccc12`
Result block: 3.3

Query block: For `COc1cccc2oc(-c3ccc(OCCOCCNCCOCCOc4ccc(-c5cc(=O)c6c(OC)cccc6o5)cc4)cc3)cc(=O)c12` , write its IC50.
Result block: 8.8

Query block: Complete the entry with IC50 for `COC(=O)c1ccc(CN(CCOCCOc2ccc(-c3cc(=O)c4ccccc4o3)cc2)CCOCCOc2ccc(-c3cc(=O)c4ccccc4o3)cc2)cc1`
Result block: 33.3

---

Target: ATP-dependent translocase ABCB1 (Homo sapiens)
Assay: Competitive inhibition of P-gp overexpressed in human MDA435/LCC6MDR cells assessed as accumulation of doxorubicin by Dixon plot analysis
Assay type: cell-based
measuredAttribute: pKi
Remember the convention: pKi equals -log10 of concentration in molar.

Query block: Note pKi for the compound shown: `O=c1cc(-c2ccc(OCCOCCN(CCOCCOc3ccc(-c4cc(=O)c5ccccc5o4)cc3)Cc3ccccc3)cc2)oc2ccccc12`
Result block: 6.55

---

Molecular target: UniProt:P08183
Experiment: Increase in human P-gp ATPase activity at 200 uM by luciferase assay relative to basal level
Conditions: read-out: FC
measuredAttribute: fold induction at 200 µM
Respond with the number and no other words.

Query block: Check the records and state fold induction at 200 µM for `O=c1cc(-c2ccc(OCCOCCN(CCOCCOc3ccc(-c4cc(=O)c5ccccc5o4)cc3)Cc3ccccc3)cc2)oc2ccccc12`
Result block: 2.7

---

Biological target: ATP-dependent translocase ABCB1 (Homo sapiens, UniProt P08183)
Sequence (P08183 whole entry): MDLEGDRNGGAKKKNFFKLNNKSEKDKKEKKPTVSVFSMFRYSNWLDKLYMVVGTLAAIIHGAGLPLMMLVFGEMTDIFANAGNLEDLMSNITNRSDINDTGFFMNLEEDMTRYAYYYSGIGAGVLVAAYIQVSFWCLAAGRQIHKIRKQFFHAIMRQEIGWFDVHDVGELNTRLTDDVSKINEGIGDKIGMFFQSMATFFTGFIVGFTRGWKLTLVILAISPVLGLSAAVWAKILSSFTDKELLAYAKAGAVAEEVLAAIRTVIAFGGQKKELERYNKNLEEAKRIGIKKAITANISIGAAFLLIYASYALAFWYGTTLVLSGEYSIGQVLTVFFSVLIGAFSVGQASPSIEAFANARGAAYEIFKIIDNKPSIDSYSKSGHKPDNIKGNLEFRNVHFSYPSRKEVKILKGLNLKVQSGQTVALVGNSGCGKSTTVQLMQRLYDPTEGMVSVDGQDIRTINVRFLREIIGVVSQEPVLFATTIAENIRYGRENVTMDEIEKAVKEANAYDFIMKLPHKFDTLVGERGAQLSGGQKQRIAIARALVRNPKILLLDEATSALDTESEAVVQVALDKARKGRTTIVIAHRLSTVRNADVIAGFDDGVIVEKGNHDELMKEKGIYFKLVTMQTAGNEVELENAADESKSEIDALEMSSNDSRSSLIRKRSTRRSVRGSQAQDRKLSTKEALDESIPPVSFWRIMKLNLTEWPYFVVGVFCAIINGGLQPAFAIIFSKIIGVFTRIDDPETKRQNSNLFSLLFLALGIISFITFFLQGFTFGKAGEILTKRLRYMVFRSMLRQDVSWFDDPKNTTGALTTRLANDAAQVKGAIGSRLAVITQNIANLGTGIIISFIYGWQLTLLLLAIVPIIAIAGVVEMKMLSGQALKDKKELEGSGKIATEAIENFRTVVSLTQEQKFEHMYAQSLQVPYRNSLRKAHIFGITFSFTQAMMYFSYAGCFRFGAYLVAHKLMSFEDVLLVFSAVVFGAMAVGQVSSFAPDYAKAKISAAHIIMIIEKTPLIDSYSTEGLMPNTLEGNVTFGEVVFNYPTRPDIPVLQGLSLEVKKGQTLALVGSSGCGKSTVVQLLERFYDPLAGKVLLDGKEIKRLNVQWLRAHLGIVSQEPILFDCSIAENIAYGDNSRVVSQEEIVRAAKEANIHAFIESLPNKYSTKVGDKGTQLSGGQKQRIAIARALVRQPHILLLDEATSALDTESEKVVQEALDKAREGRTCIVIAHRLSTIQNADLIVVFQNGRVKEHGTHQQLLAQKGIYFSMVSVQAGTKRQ
Assay: Competitive inhibition of P-gp overexpressed in human MDA435/LCC6MDR cells assessed as accumulation of doxorubicin by Lineweaver-Burk plot analysis
Format: cell-based
measuredAttribute: Ki (nM)
Just the number please, in nM, no unit attached.

Query block: Hello, please tell me recorded Ki for this one: `O=c1cc(-c2ccc(OCCOCCN(CCOCCOc3ccc(-c4cc(=O)c5ccccc5o4)cc3)Cc3ccccc3)cc2)oc2ccccc12`
Result block: 340

---

Experiment: Cytotoxicity against human LCC-6 cells after 72 hrs
Type: functional, cell-based
Conditions: LCC-6, 72 h
# pIC50 values compiled below
Lab note — pIC50 values are minus log10 of concentrations in M.

Please review the following examples before continuing.
In [3]: df
Out[3]:
                       smilesrepresentation  measurednumber
0  O=c1cc(-c2ccc(OCCOCCNCCOCCOc3ccc(-c4cc(=O)c5cc(F)ccc5o4)cc3)cc2)oc2ccc(F)cc12            5.28
1  O=c1cc(-c2ccc(OCCOCCN(CCOCCOc3ccc(-c4cc(=O)c5ccccc5o4)cc3)Cc3ccc([N+](=O)[O-])cc3)cc2)oc2ccccc12            4.06

Attention now turns to another entry.
Query block: Determine its reported pIC50: `O=c1cc(-c2ccc(OCCOCCN(CCO)CCOCCOc3ccc(-c4cc(=O)c5ccccc5o4)cc3)cc2)oc2ccccc12`
Result block: 4.97

---

Test: Cytotoxicity against human LCC-6 cells after 72 hrs
Type: functional, cell-based
Details: LCC-6, 72 h
Collected pIC50 values appear next to each entry.
Lab note: report pIC50 as minus log10 of the concentration in molar units, number only.

Query block: Identify the reported pIC50 for the following entry. C/C=C/C[C@@H](C)C(=O)[C@H]1C(=O)N[C@@H](C(C)C)C(=O)N(C)CC(=O)N(C)[C@@H](CC(C)C)C(=O)N[C@@H](C(C)C)C(=O)N(C)[C@@H](CC(C)C)C(=O)N[C@@H](C)C(=O)N[C@H](C)C(=O)N(C)[C@@H](CC(C)C)C(=O)N(C)[C@@H](CC(C)C)C(=O)N(C)[C@@H](C(C)C)C(=O)N1C [VALSPODAR]
Result block: 4.60

---

Experiment: Cytotoxicity against human LCC-6 cells after 72 hrs
Type: functional, cell-based
Settings: LCC-6, 72 h
pIC50: −log10 of the molar value.
pIC50 values by entry

Worked set:
>>> print(df.to_string())
                       smilesrepresentation  result
0  O=c1cc(-c2ccc(OCCOCCN(CCOCCOc3ccc(-c4cc(=O)c5ccccc5o4)cc3)Cc3ccccc3F)cc2)oc2ccccc12  < 4.00
1  O=c1cc(-c2ccc(OCCOCCN(CCOCCOc3ccc(-c4cc(=O)c5ccccc5o4)cc3)Cc3cc(F)c(F)c(F)c3)cc2)oc2ccccc12  < 4.12
2  Cc1ccc(S(=O)(=O)N(CCOCCOc2ccc(-c3cc(=O)c4ccccc4o3)cc2)CCOCCOc2ccc(-c3cc(=O)c4ccccc4o3)cc2)cc1  < 4.00

Query block: Input `O=c1cc(-c2ccc(OCCOCCN(CCOCCOc3ccc(-c4cc(=O)c5ccccc5o4)cc3)Cc3ccncc3)cc2)oc2ccccc12` , output reported pIC50.
Result block: < 4.00

---

Quick reference: pIC50 of the listed items.
Assay: Cytotoxicity against human LCC-6 cells after 72 hrs
Format: functional, cell-based
Details: LCC-6, 72 h
// field semantics: pIC50 = negative decimal log of concentration (mol/L)

Recorded results for 3 molecules are shown here.
>>> df
                       smilesrepresentation  measurednumber
0  CCN(CCOCCOc1ccc(-c2cc(=O)c3ccccc3o2)cc1)CCOCCOc1ccc(-c2cc(=O)c3ccccc3o2)cc1            4.99
1  O=c1cc(-c2ccc(OCCOCCN(CCOCCOc3ccc(-c4cc(=O)c5ccccc5o4)cc3)Cc3ccc(F)c(F)c3)cc2)oc2ccccc12            4.49
2  CC(C)(C)OC(=O)N(CCOCCOc1ccc(-c2cc(=O)c3ccccc3o2)cc1)CCOCCOc1ccc(-c2cc(=O)c3ccccc3o2)cc1            5.10

Query block: Check the records and state pIC50 for `COc1cc(-c2cc(=O)c3ccccc3o2)ccc1OCCOCCN(CCOCCOc1ccc(-c2cc(=O)c3ccccc3o2)cc1OC)C(=O)OC(C)(C)C`
Result block: 5.08

Query block: Return pIC50 (reported value) for this molecule: `C[C@H](N)C(=O)N(CCOCCOc1ccc(-c2cc(=O)c3ccccc3o2)cc1)CCOCCOc1ccc(-c2cc(=O)c3ccccc3o2)cc1`
Result block: 5.36

Query block: Look up and state reported pIC50 for `COc1cccc2oc(-c3ccc(OCCOCCN(CCOCCOc4ccc(-c5cc(=O)c6c(OC)cccc6o5)cc4)C(=O)OC(C)(C)C)cc3)cc(=O)c12`
Result block: 5.34

Query block: Consider the molecule `CS(=O)(=O)N(CCOCCOc1ccc(-c2cc(=O)c3ccccc3o2)cc1)CCOCCOc1ccc(-c2cc(=O)c3ccccc3o2)cc1` . State its measured pIC50.
Result block: 4.56

Query block: Give the measured pIC50 for `COc1cc(-c2cc(=O)c3ccccc3o2)ccc1OCCOCCNCCOCCOc1ccc(-c2cc(=O)c3ccccc3o2)cc1OC`
Result block: 4.89

Query block: Please look at this molecule and report its pIC50: `CCOC(=O)CCN(CCOCCOc1ccc(-c2cc(=O)c3ccccc3o2)cc1)CCOCCOc1ccc(-c2cc(=O)c3ccccc3o2)cc1`
Result block: 4.87

Query block: Report pIC50 for `Cc1ccc2oc(-c3ccc(OCCOCCNCCOCCOc4ccc(-c5cc(=O)c6cc(C)ccc6o5)cc4)cc3)cc(=O)c2c1`
Result block: 5.12
